- Tested on: MDA-MB-231 breast
- Test description: NCI tumour cell line growth inhibition, 48 h
Measured metric: TGI (µM)

Molecule	Measured metric	Unit annotation	Prefix operator	Result value
CC1(COS(=O)(=O)OCC2(C)COS(=O)(=O)OC2)COS(=O)(=O)OC1	TGI	µM	>	100
O=C1/C(=C2\Sc3c(ccc(Cl)c3Cl)C2=O)Sc2c1ccc(Cl)c2Cl	TGI	µM	>	100
O=C1c2cccc3cccc(c23)C(=O)N1CCCNOCCONCCCN1C(=O)c2cccc3cccc(c23)C1=O	TGI	µM	>	100
c1ccc2c(c1)nc1n2CCSC1	TGI	µM	>	100
COC(=O)[C@@]12CCCC(=O)[C@@H]1[C@H]1CCCC[C@H]12	TGI	µM	>	100
CC(C)[C@H]1C(=O)N[C@@H](CCCN=C(N)N)C(=O)NCC(=O)N[C@@H](CC(=O)O)C(=O)N[C@H](Cc2ccccc2)C(=O)N1C	TGI	µM	>	28.9
C[C@]12CC[C@H](O)CC1=CC[C@@H]1[C@@H]2CC[C@]2(C)/C(=N/OCCN3CCCC3)CC[C@@H]12	TGI	µM	=	36.9
O=c1[nH]c(N/N=C\C(O)C(O)C(O)CO)nc2ccccc12 (centres undefined)	TGI	µM	>	100
S=C(S)NCC1CCC(CNC(=S)S)CC1 (centres undefined)	TGI	µM	=	70.1
COc1cc2nc(-c3ccc(C(F)(F)F)cc3)cc(OCCCN3CCCCC3)c2cc1OC	TGI	µM	=	4.04
Cc1ccc(NC(=O)Cn2c(Br)nc3c2c(=O)n(C)c(=O)n3C)cc1	TGI	µM	=	6.42
O=c1oc2ccc(Cl)cc2cc1-c1cn2cc(Cl)ccc2n1	TGI	µM	>	100
COC(=O)C1=C(C(=O)OC)SC(=C(Cl)C(=S)Sc2ccccc2N)S1	TGI	µM	=	42.9
CCCCCCN(CCCCCC)CC(O)c1ccc2c3c(cccc13)CC2 (centres undefined)	TGI	µM	=	21.3
O=C(NCc1ccc(Cl)cc1)c1cc2sccc2nc1C(F)(F)F	TGI	µM	>	100
CCCCOCn1c(=O)[nH]c(=O)c2cc(Br)ccc21	TGI	µM	>	100
Cc1cc(C)n(CN(Cn2nc(C)cc2C)C2CCCCC2)n1	TGI	µM	=	64.2
NC(N)=NS(=O)(=O)c1ccc(NC(=O)c2ccc3nc4ccccc4c(Nc4ccc(S(N)(=O)=O)cc4)c3c2)cc1	TGI	µM	>	100
Cc1cc(-c2nnc3n2CCCCC3)c(C)n1-c1ccc(Cl)c(Cl)c1	TGI	µM	=	33.5
C=C(C)C1CC=C(C)C2(C1)OCC(C)(C)C(C)O2 (centres undefined)	TGI	µM	=	46.3
FCc1ncc(-c2ccc(C(F)(F)F)cc2)c(NC2CCCCCC2)n1	TGI	µM	>	10
C=C1C(=O)O[C@H]2C[C@@]3(C)[C@H](O)CCC(=C)[C@@H]3[C@@H](OC(C)=O)[C@H]12	TGI	µM	=	36.6
Cc1c(-c2ccccc2)c(C#N)c2nnc(C(N)=O)c(N)n12	TGI	µM	>	100
COc1c(C)c(OC)c2c(c1O)[C@@H]1[C@@H]3Cc4c(OC)c(C)c(OC)c(O)c4[C@H](CNC(=O)c4cnc5ccccc5n4)N3[C@@H](C#N)[C@H](C2)N1C	TGI	µM	=	0.032

Origin of measurements: PubChem BioAssay (NCI)
